Assignment: determine reported pIC50 for the given compounds.
# System: platelet aggregation caused by arachidonic acid (platelet-rich plasma)
# PROCEDURE DETAILS: Platelet aggregation-inhibitory action, arachidonic acid (100 μM) induced, Born's turbidometric method
# Assay type: cell-based, rabbit
# CONDITION SET: Oryctolagus cuniculus, 0.05 h, rabbit PRP, 37° C., 3 min. incubation, arachidonic acid 100 μM, read-out: 50% inhibitory concentration, Arachidonic acid
Remember, pIC50 is on a log scale: it is -log10 of the molar concentration.

Reported pIC50 of CC/C=C\C/C=C\C/C=C\C/C=C\C/C=C\CCCC(=O)NCCO [Example 1] : 4.66

Reported pIC50 of CC/C=C\C/C=C\C/C=C\C/C=C\C/C=C\CCCC(=O)N(CC)CCOC(=O)c1cccnc1 [Example 10] : 5.30

Reported pIC50 of CC/C=C\C/C=C\C/C=C\C/C=C\C/C=C\CCCC(=O)OCCN(CC)C(=O)c1cccnc1 [Example 13] : 3.59

Reported pIC50 of CC/C=C\C/C=C\C/C=C\C/C=C\C/C=C\CCCC(=O)N(CCCC)CCOCc1cccnc1 [Example 15] : 5.15

Reported pIC50 of CC/C=C\C/C=C\C/C=C\C/C=C\C/C=C\CCCC(=O)N(C)CCOC(=O)c1cccnc1 [Example 8] : 5.18

Reported pIC50 of CC/C=C\C/C=C\C/C=C\CCCCCCCC(=O)N(C)CCOC(=O)c1cccnc1 [Example 9] : 5.08

Reported pIC50 of CC/C=C\C/C=C\C/C=C\CCCCCCCC(=O)NCCCOCc1cccnc1 [Example 17] : 5.15

Reported pIC50 of CC/C=C\C/C=C\C/C=C\C/C=C\C/C=C\CCCC(=O)OCCNC(=O)c1cccnc1 [Example 2] : 4.96

Reported pIC50 of CC/C=C\C/C=C\C/C=C\C/C=C\C/C=C\CCCC(=O)NCCOC(=O)c1cccnc1 [Example 5] : 5.06

====

# System: platelet aggregation caused by arachidonic acid (platelet-rich plasma)
# PROCEDURE DETAILS: Platelet aggregation-inhibitory action, arachidonic acid (100 μM) induced, Born's turbidometric method
# Type: cell-based, rabbit
# CONDITION SET: Oryctolagus cuniculus, 0.05 h, rabbit PRP, 37° C., 3 min. incubation, arachidonic acid 100 μM, read-out: 50% inhibitory concentration, Arachidonic acid
pIC50: −log10 of the molar value.
// label = 1 if pIC50 is not less than 5, otherwise -1

Data request: Quick check, pIC50 >= 5? CC/C=C\C/C=C\C/C=C\C/C=C\C/C=C\CCCC(=O)NCCOCc1cccnc1 [Example 16]
Data returned: 1

Data request: Quick check, pIC50 >= 5? CC/C=C\C/C=C\C/C=C\C/C=C\C/C=C\CCCC(=O)N(CCO)CCCC [Example 7]
Data returned: 1

Data request: Quick check, pIC50 >= 5? CC/C=C\C/C=C\C/C=C\C/C=C\C/C=C\CCCC(=O)N(CCCC)CCOC(=O)c1cccnc1 [Example 11]
Data returned: 1

Data request: Quick check, pIC50 >= 5? CCCCC/C=C\C/C=C\C/C=C\CCCCC(=O)OCCNC(=O)c1cccnc1 [Example 4]
Data returned: -1

Data request: Quick check, pIC50 >= 5? CC/C=C\C/C=C\C/C=C\C/C=C\C/C=C\CCCC(=O)N(C)CCOCc1cccnc1 [Example 14]
Data returned: 1

Data request: Quick check, pIC50 >= 5? CC/C=C\C/C=C\C/C=C\C/C=C\C/C=C\CCCC(=O)N(CC)CCO [Example 6]
Data returned: 1

Data request: Quick check, pIC50 >= 5? CC/C=C\C/C=C\C/C=C\CCCCCCCC(=O)OCCNC(=O)c1cccnc1 [Example 3]
Data returned: -1

Data request: Quick check, pIC50 >= 5? CC/C=C\C/C=C\C/C=C\C/C=C\C/C=C\CCCC(=O)NCCCOC(=O)c1cccnc1 [Example 12]
Data returned: 1
